Hi there, I'd appreciate the recorded Kd for every entry that follows.
Target: T1, recombinant YFV E protein (soluble E, sE; YFV Asibi strain) (Yellow fever virus, Asibi strain, UniProt Q6DV88 286-678)
T1 construct: also called YFV E antigen; YFV E monomer
T1 sequence (Q6DV88 286-678): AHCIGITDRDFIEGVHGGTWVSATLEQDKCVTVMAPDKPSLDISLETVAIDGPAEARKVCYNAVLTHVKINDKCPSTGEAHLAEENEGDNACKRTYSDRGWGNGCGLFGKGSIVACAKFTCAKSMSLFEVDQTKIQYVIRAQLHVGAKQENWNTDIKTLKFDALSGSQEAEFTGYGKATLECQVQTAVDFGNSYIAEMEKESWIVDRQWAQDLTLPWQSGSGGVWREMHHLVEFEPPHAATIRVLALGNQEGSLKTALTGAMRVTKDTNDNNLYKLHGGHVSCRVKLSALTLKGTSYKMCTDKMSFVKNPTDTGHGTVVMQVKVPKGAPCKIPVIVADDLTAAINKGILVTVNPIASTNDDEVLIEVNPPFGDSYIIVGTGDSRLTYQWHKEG
Assay: BLI monovalent (IgG on tip)

>  <BINDER>
ADI-48890 (antibody, V domains shown, full-length IgG) VH: EVQLVESGGGLVQPGGSLRLSCAASGFTFSDHYMDWVRQAPGKGLEWVGRARNRANSYTTEYAASVKGRFAASRDDSKNSLYLQMNSLKTEDTAVYYCARVRGSYWDYWGQGTLVTVSS VL: QSALTQPPSASGSPGQSVTISCTGTSSDVGGYNYVSWYQQHPGKAPKLMIYEVSKRPSGVPDRFSGSKSGNTASLTVSGLQAEDEADYYCSSFAGSNNLYVFGTGTKVTVL

>  <Kd>
> 0.1 µM

$$$$
>  <BINDER>
ADI-42181 (antibody, V domains shown, full-length IgG) VH: EVQLVESGGGLVQPGGSLRLSCAASGFTFSNYWMNWVRQAPGKGLEWVANIKQDGSEKYYVDSVKGRFTISRDNAKNSLYLQMNSLRAEDTAVYYCARKLSYSSGWYYFDYWGQGTLVTVSS VL: DIVMTQTPATLSVSPGERATLSCRASQSVSSNVAWYQQKPGQAPRLLIHGASTRATGIPARFSGSGSGTEFTLTISSLQSEDFAVYYCQQYNNWPPLTFGGGTKLEIK

>  <Kd>
0.0315 µM

$$$$
>  <BINDER>
ADI-42844 (antibody, V domains shown, full-length IgG; also called Antibody Number 91) VH: QVQLVESGGGVVQPGRSLRLSCTASGFTFSSYGMHWVRQAPGKGPEWVAVISYDGSKKYFADSVKGRFTISRDNSKNTLYLQMNSLRAEDTAVYSCAKGYDSNGYYYIDYWGQGTPVTVSS VL: DIRVTQSPSTLSASVGDRVTITCRASQSISSWLAWYQQKPGKAPKLLIYRASSLESGVPSRFSGSGSGTEFTLTISSLQPDDFATYYCQQYNRYPYTFGQGTKVEIK

>  <Kd>
0.137 µM

$$$$
>  <BINDER>
ADI-42849 (antibody, V domains shown, full-length IgG; also called Antibody Number 50) VH: QVQLVESGGGLVKPGGSLRLSCAASGFTFSDYYMSWIRQAPGKGLEWVSYITSSGNTMYYADSVKGRFTISRDNAKNSLYLQMNSLRAEDTAVYYCARDSNFNSNLDYWGQGTLVTVSS VL: SYELTQPPSVSVAPGQTARITCGGHNVGSKSVHWYQQKPGQAPVLVVYDDSDRPSGIPERFSGSNSGNTATLTISRVEAGDEADYYCQVWDSSSDHPWVFGGGTKVTVL

>  <Kd>
0.00198 µM

$$$$

Lab note: next binder to report on.
Query ADI-42228 (antibody, V domains shown, full-length IgG; also called Antibody Number 19) VH: EVQLLESGGGLVQPGRSLRLSCAASGFTFDDYAMHWVRQPPGKGLEWVSGISWNGGGIGYADSVKGRFTISRDNAKNSLYLQMNSLRADDTALYYCAKAENRIGYCSAGSCYLTYFDYWGQGTLVTVSS VL: QPVLTQPASVSGSPGQSITISCTGTSSDVGGYNYVSWYQQHPGKAPKLLIYDVSNRPSGVSNRFSGSKSANSASLTISGLQAEDEADYYCNSYTSSSTLVFGGGTKLTVL yields Kd of 0.00864 µM
